quantity name: melting point

For orientation, consider the following solved cases.
COC(=O)c1ccc(-c2nn(-c3cccc(Cl)c3)c3cc[se]c23)o1 107 to 109 °C
COC(=O)c1ccc(-c2nn(Cc3ccccc3)c3cc[se]c23)o1 130 to 131 °C
COC(=O)c1ccc(-c2nn(-c3ccccc3)c3cc[se]c23)cc1 165 to 166 °C
COC(=O)c1ccc(-c2nn(-c3ccccc3Cl)c3cc[se]c23)o1 134 to 136 °C
COC(=O)c1ccc(-c2nn(Cc3ccccc3)c3[se]ccc23)o1 121 to 123 °C

Give the reported value of melting point for this record: `OCc1ccc(-c2nn(-c3ccccc3)c3cc[se]c23)cc1`
133 to 134 °C

Give the reported value of melting point for this record: `COC(=O)c1ccc(-c2nn(Cc3ccccc3)c3cc(C)[se]c23)o1`
142 to 145 °C

Give the reported value of melting point for this record: `OCc1ccc(-c2nn(-c3ccccc3)c3[se]ccc23)o1`
136 to 138 °C

Give the reported value of melting point for this record: `COC(=O)c1ccc(-c2nn(-c3ccc(Cl)cc3)c3cc[se]c23)o1`
146 to 148 °C

Reference source for all entries: patent US8053459B1
